// data source = patent US4311698A

# MIC measurements, system: Serr. Mar. IMM 16
Only the number, expressed in mg/L, is required.

// solved cases for MIC follow
1) CC(=O)OCC1=C(C(=O)O)N2C(=O)C(NC(=O)[C@H](NC(=O)c3ccc(-c4ccc(NC(=O)[C@@H]5CCC(=O)N5C)cc4)[nH]c3=O)c3ccccc3)C2SC1 (stereo partly shown) [Example 34]
50
2) CC(=O)N[C@@H](CCC(N)=O)C(=O)Nc1ccc(-c2ccc(C(=O)N[C@@H](C(=O)NC3C(=O)N4C(C(=O)O)=C(CSc5nnnn5CS(=O)(=O)O)CSC34)c3ccccc3)c(=O)[nH]2)cc1 (stereo partly shown) [Example 42]
12.5
3) CC(=O)N[C@@H](CCC(N)=O)C(=O)Nc1ccc(-c2ccc(C(=O)N[C@@H](C(=O)NC3C(=O)N4C(C(=O)O)=C(CSc5nnnn5C)CSC34)c3ccccc3)c(=O)[nH]2)cc1 (stereo partly shown) [Example 9]
12.5
4) CC(=O)NC(C)C(=O)Nc1ccc(-c2ccc(C(=O)N[C@@H](C(=O)NC3C(=O)N4C(C(=O)O)=C(CSc5nnc(C)s5)CSC34)c3ccccc3)c(=O)[nH]2)cc1 (mixture of isomers) [Example 22]
25
5) CC(=O)N[C@H](C)C(=O)Nc1ccc(-c2ccc(C(=O)N[C@@H](C(=O)NC3C(=O)N4C(C(=O)O)=C(CSc5nnnn5C)CSC34)c3ccccc3)c(=O)[nH]2)cc1 (stereo partly shown) [Example 19]
25

Now take the following compound into account.
# MIC measured on Serr. Mar. IMM 16 for item CC(=O)NC(C)C(=O)Nc1ccc(-c2ccc(C(=O)N[C@@H](C(=O)NC3C(=O)N4C(C(=O)O)=C(COC(C)=O)CSC34)c3ccccc3)c(=O)[nH]2)cc1 (mixture of isomers) [Example 3] = 25

---

Reported MIC values follow for various compounds
test system: Pseudomonas BRK 12-4-4; assay: In vitro minimal inhibitory concentration, Pseudomonas BRK 12-4-4; type: cell-based; conditions: BRK1244
// note: answer is a bare numeric in µg/mL

Use these answered entries as a reference point.
1. O=C(O)Cn1nnnc1SCC1=C(C(=O)O)N2C(=O)C(NC(=O)[C@H](NC(=O)c3ccc(-c4ccc(NC(=O)[C@@H]5CCC(=O)N5)cc4)[nH]c3=O)c3ccccc3)C2SC1 (stereo partly drawn) [Example 16]
6.3
2. CC(=O)N[C@@H](C)C(=O)Nc1ccc(-c2ccc(C(=O)N[C@@H](C(=O)NC3C(=O)N4C(C(=O)O)=C(COC(C)=O)CSC34)c3ccccc3)c(=O)[nH]2)cc1 (stereo partly drawn) [Example 5]
12.5

Turning now to a further compound:
Reported MIC for CC(=O)OCC1=C(C(=O)O)N2C(=O)C(NC(=O)[C@H](NC(=O)c3ccc(-c4ccc(NC(=O)[C@@H]5CC(OC(C)=O)CN5C(C)=O)cc4)[nH]c3=O)c3ccccc3)C2SC1 (stereo partly drawn) [Example 32] was 25

---

Catalogue of MIC readings, one per entry.
tested on: Pseudomonas #28; assay: In vitro minimal inhibitory concentration, Pseudomonas #28; format: cell-based; conditions: Pseudomonas #28; in vitro; read-out: Minimal Inhibitory Concentration
Give the value in mg/L but do not write mg/L after it.

1. CC(=O)N1CC(O)C[C@H]1C(=O)Nc1ccc(-c2ccc(C(=O)N[C@@H](C(=O)NC3C(=O)N4C(C(=O)O)=C(CSc5nnnn5CC(=O)O)CSC34)c3ccccc3)c(=O)[nH]2)cc1 (some centres unmarked) [Example 30]
6.3
2. CC(=O)N[C@H](C)C(=O)Nc1ccc(-c2ccc(C(=O)N[C@@H](C(=O)NC3C(=O)N4C(C(=O)O)=C(COC(C)=O)CSC34)c3ccccc3)c(=O)[nH]2)cc1 (some centres unmarked) [Example 4]
6.3
3. CC(=O)NCCCC[C@H](NC(C)=O)C(=O)Nc1ccc(-c2ccc(C(=O)N[C@@H](C(=O)NC3C(=O)N4C(C(=O)O)=C(COC(C)=O)CSC34)c3ccccc3)c(=O)[nH]2)cc1 (some centres unmarked) [Example 35]
12.5
4. CC(=O)N[C@@H](C)C(=O)Nc1ccc(-c2ccc(C(=O)N[C@@H](C(=O)NC3C(=O)N4C(C(=O)O)=C(COC(C)=O)CSC34)c3ccccc3)c(=O)[nH]2)cc1 (some centres unmarked) [Example 5]
6.3

Next up:
Kindly note the recorded MIC for CC(=O)N[C@H](C)C(=O)Nc1ccc(-c2ccc(C(=O)N[C@@H](C(=O)NC3C(=O)N4C(C(=O)O)=C(CSc5nnnn5C)CSC34)c3ccccc3)c(=O)[nH]2)cc1 (some centres unmarked) [Example 19] , which is 6.3
